Test system: U2OS
Assay: cell viability relative to DMSO; higher = less toxic
Details: 72 h; 1000 nM
MEASUREMENT LABEL: cell viability (%)
Enter your answer as a number in %; do not include the unit.

Reference set (7 entries):
# GIVEN SMILES, cell viability / %
records = [
    ("C[C@@H]1O[C@@H](OC[C@H]2O[C@@H](Oc3c(-c4ccc(O)c(O)c4)oc4cc(O)cc(O)c4c3=O)[C@H](O)[C@@H](O)[C@@H]2O)[C@H](O)[C@H](O)[C@H]1O", 98.5),
    ("COc1cccc([C@H](O)C2CCN(CCc3ccc(F)cc3)CC2)c1OC", 98.6),
    ("CC(C)(C)c1cc(C=C(C#N)C#N)cc(C(C)(C)C)c1O", 90.6),
    ("Fc1ccc(Cl)cc1-c1nc(Nc2ccncc2)c2nccnc2n1", 90.1),
    ("COc1cc2c(cc1OC)CN(CCc1ccc(NC(=O)c3cc(OC)c(OC)cc3NC(=O)c3cnc4ccccc4c3)cc1)CC2", 103),
    ("CCCCC(=O)N(Cc1ccc(-c2ccccc2-c2nnn[nH]2)cc1)[C@H](C(=O)O)C(C)C", 97.2),
    ("CN(C)[C@@H](CCOc1cccc2ccccc12)c1ccccc1", 98.2),
]

*Q* Identify measured cell viability corresponding to O=[N+]([O-])c1cc(Cl)ccc1S(=O)(=O)c1ccccc1
*A* 103

The reported measurements were obtained from the supplement of paper PMC13380429.
